assay_system: human recombinant Yes [a.a. 2–543 (end)] (Homo sapiens)
Construct: human recombinant Yes [a.a; 2–543 (end)]; purchased BPS Bioscience 40488
test_description: ADP-Glo kinase assay, inhibition rates of Yes phosphorylation activity (first and second screening)
Type: biochemical
measurement_conditions: first screening; mean of n = 4 wells; 10 μmol L−1 compound
property_measured: First screening IR (inhibition rate) (%)

I = O=C(CSc1nnc(COc2ccccc2Cl)n1-c1ccccc1)N1CCc2ccccc2C1
II = CC(Sc1n[nH]c(-c2ccccc2Br)n1)C(=O)Nc1ccc(F)cc1 (stereo not shown)
Query block: Field: entry with larger First screening IR (inhibition rate) (options I / II ). Field: selected label. Fill in the label of the entry you choose.
Result block: II

---

assay_system: human recombinant Yes [a.a. 2–543 (end)] (Homo sapiens, UniProt P07947)
Construct: human recombinant Yes [a.a; 2–543 (end)]; purchased BPS Bioscience 40488
Sequence (P07947 2-543): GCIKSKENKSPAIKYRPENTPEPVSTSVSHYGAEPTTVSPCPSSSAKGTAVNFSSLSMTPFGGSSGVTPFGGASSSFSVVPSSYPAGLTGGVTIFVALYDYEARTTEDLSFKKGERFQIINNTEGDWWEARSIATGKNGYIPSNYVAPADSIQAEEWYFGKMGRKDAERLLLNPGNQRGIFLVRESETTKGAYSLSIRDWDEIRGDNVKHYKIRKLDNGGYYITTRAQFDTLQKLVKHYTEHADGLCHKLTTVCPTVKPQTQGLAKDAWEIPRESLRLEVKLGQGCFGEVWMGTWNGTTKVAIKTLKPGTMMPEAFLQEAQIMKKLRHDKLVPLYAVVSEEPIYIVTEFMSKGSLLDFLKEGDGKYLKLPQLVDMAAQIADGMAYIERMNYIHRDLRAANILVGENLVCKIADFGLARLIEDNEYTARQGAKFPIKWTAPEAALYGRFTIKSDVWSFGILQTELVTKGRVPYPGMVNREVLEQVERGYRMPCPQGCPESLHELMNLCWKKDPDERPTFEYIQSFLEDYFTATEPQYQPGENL
test_description: ADP-Glo kinase assay, inhibition rates of Yes phosphorylation activity (first and second screening)
Type: biochemical
measurement_conditions: first screening; mean of n = 4 wells; 10 μmol L−1 compound
property_measured: First screening IR (inhibition rate) (%)

>  <molecule>
O=S(=O)(Cl)c1ccc(S(=O)(=O)N2CCCC2)cc1 [Compound Z56979291]

>  <First screening IR (inhibition rate) / %>
9

$$$$
>  <molecule>
O=C(O)c1c2c(nc3ccccc13)/C(=C\c1ccccc1)CCC2 [Compound Z46035726]

>  <First screening IR (inhibition rate) / %>
-14

$$$$
>  <molecule>
COc1cccc(-c2nnc(SCC(=O)N3CCOCC3)n2-c2ccc(C)cc2)c1 [Compound Z19982748]

>  <First screening IR (inhibition rate) / %>
27

$$$$
>  <molecule>
COc1ccc(/C(O)=C2\C(=O)C(=O)N(CCCn3ccnc3)C2c2ccc(OC(C)C)cc2)cc1 (centres unmarked) [Compound Z316169960]

>  <First screening IR (inhibition rate) / %>
12

$$$$
>  <molecule>
CCCCCn1c(=O)c2ccccc2n2c(SCC(=O)NC(=O)NC3CCCC(C)C3C)nnc12 (centres unmarked) [Compound Z17895832]

>  <First screening IR (inhibition rate) / %>
-5

$$$$
>  <molecule>
CCN(CC)S(=O)(=O)c1ccc(NC(=O)CNC(=O)C23CC4CC(CC(C4)C2)C3)cc1 [Compound Z31827545]

>  <First screening IR (inhibition rate) / %>
8

$$$$

1 = CCn1c(-c2ccccc2)c(C(=O)CSc2nnc(-c3cccnc3)n2N)c2ccccc21 [Compound Z54072868]
2 = COC(=O)Cn1ncc2c(N3CCCC34CCCCC4)ncnc21 [Compound Z1527076116]
3 = FC(F)(F)c1ccnc(Nc2ccc(N3CCCCCC3)cc2)n1 [Compound Z642699568]
4 = CC(C)n1ncc2c(C(=O)N3CCN(c4ccc(F)cc4)CC3)cc(-c3ccccc3)nc21 [Compound Z52005969]
5 = CS(=O)(=O)c1ccc(Cl)c(S(C)(=O)=O)c1 [Compound Z87002147]
Query block: Arrange items by their First screening IR (inhibition rate) values in increasing order. Thanks in advance for listing the labels in the requested order.
Result block: 3, 1, 2, 5, 4

P = COc1cc(/C=C2/CC(C)Cc3c2nc2ccccc2c3C(=O)O)cc(Cl)c1O (centres unmarked) [Compound Z46108144]
Q = CCC1(c2ccc(F)cc2)NC(=O)N(CC(=O)Nc2ccc(C(=O)N(C)C)cc2)C1=O (centres unmarked) [Compound Z14224841]
Query block: // which entry reports the smaller First screening IR (inhibition rate), P or Q ? Field: selected label. Fill in the label of the entry you choose.
Result block: P
(P: 3%, Q: 16%)

I = O=C(Nc1nc(-c2ccccc2)cs1)c1cc2ccccc2s1 [Compound Z87524039]
II = CC(Sc1nnnn1C)C(=O)Nc1ccc2c(c1)OCO2 (centres unmarked) [Compound Z18519758]
III = CCN(C(C)C)S(=O)(=O)c1ccc(S(C)(=O)=O)cc1 [Compound Z736710192]
Query block: Rank the 3 molecules: largest First screening IR (inhibition rate) first, smallest last. Thanks in advance for listing the labels in the requested order.
Result block: I, II, III

---

assay_system: human recombinant Yes [a.a. 2–543 (end)] (Homo sapiens, UniProt P07947)
Construct: human recombinant Yes [a.a; 2–543 (end)]; purchased BPS Bioscience 40488
test_description: ADP-Glo kinase assay, inhibition rates of Yes phosphorylation activity (first and second screening)
Format: biochemical
measurement_conditions: first screening; mean of n = 4 wells; 10 μmol L−1 compound
property_measured: First screening IR (inhibition rate) (%)

Completed entries (count: 5):
>  <molecule>
CCCn1nccc1NC(=O)CN(C)C(C)c1cccc(-c2ccncc2)c1 (centres unmarked)

>  <unit_abbreviation>
%

>  <First screening IR (inhibition rate)>
17

$$$$
>  <molecule>
C=CCNc1nc(C(=O)OCCCn2c(=O)[nH]c3ccccc32)cs1

>  <unit_abbreviation>
%

>  <First screening IR (inhibition rate)>
5

$$$$
>  <molecule>
Cc1cc(=O)n2c3ccccc3n(CC(O)CN3CCN(CCOc4ccc(Cl)cc4)CC3)c2c1C#N (centres unmarked)

>  <unit_abbreviation>
%

>  <First screening IR (inhibition rate)>
7

$$$$
>  <molecule>
Cc1ccccc1Nc1ncnc(N)n1

>  <unit_abbreviation>
%

>  <First screening IR (inhibition rate)>
15

$$$$
>  <molecule>
COC1CN(C(=O)c2cn(-c3ccccc3)nc2-c2cccnc2)C1

>  <unit_abbreviation>
%

>  <First screening IR (inhibition rate)>
7

$$$$

1 = CS(=O)(=O)CS(=O)(=O)C(F)(F)F
2 = O=C(OCc1nc(-c2cccs2)no1)c1c(F)cccc1Cl
3 = Cc1ccn2c(/C=C/C(=O)c3cccc(N4CCOC4=O)c3)cnc2c1
4 = O=C(NCCNc1ncc(C(F)(F)F)cc1Cl)c1ccc2nc[nH]c2c1
Query block: Rank the 4 molecules: largest First screening IR (inhibition rate) first, smallest last. Thanks in advance for listing the labels in the requested order.
Result block: 3, 4, 2, 1

---

assay_system: human recombinant Yes [a.a. 2–543 (end)] (Homo sapiens, UniProt P07947)
Construct: human recombinant Yes [a.a; 2–543 (end)]; purchased BPS Bioscience 40488
test_description: ADP-Glo kinase assay, inhibition rates of Yes phosphorylation activity (first and second screening)
Format: biochemical
measurement_conditions: first screening; mean of n = 4 wells; 10 μmol L−1 compound
property_measured: First screening IR (inhibition rate) (%)

Completed entries (count: 3):
>  <compound>
Oc1cncc(/C=C/c2nc(-c3ccc(Oc4ccc(F)cc4)nc3)no2)c1 [Compound Z1642148338]

>  <unit_abbreviation>
%

>  <First screening IR (inhibition rate)>
-13

$$$$
>  <compound>
COc1ccc(-n2cc(-c3ccccc3)c3c(=O)[nH]cnc32)cc1 [Compound Z295463532]

>  <unit_abbreviation>
%

>  <First screening IR (inhibition rate)>
-5

$$$$
>  <compound>
CC1C/C(=C/c2ccc(Cl)c([N+](=O)[O-])c2)c2nc3ccccc3c(C(=O)O)c2C1 (stereo not shown) [Compound Z46107857]

>  <unit_abbreviation>
%

>  <First screening IR (inhibition rate)>
11

$$$$

A = COc1ccc(S(=O)(=O)NCC(=O)OCC(=O)Nc2ccc(Cl)c(C(F)(F)F)c2)cc1 [Compound Z24395276]
B = CCN(CC)CCn1c(NC(=O)c2cc3c(C)nn(-c4ccc(Cl)cc4)c3s2)nc2ccccc21 [Compound Z29249972]
Query block: // which entry reports the smaller First screening IR (inhibition rate), A or B ? Field: selected label. Fill in the label of the entry you choose.
Result block: B

1 = O=C(/C=C/c1cn(-c2ccccc2)nc1-c1cccnc1)c1ccc(Cl)c([N+](=O)[O-])c1 [Compound Z46041361]
2 = CC(C)CNC(=O)CN1CCN(c2nc(-c3ccccn3)nc3scc(-c4ccccc4)c23)CC1 [Compound Z196146788]
Query block: Field: entry with larger First screening IR (inhibition rate) (options 1 / 2 ). Field: selected label. Fill in the label of the entry you choose.
Result block: 1

---

assay_system: human recombinant Yes [a.a. 2–543 (end)] (Homo sapiens, UniProt P07947)
Construct: human recombinant Yes [a.a; 2–543 (end)]; purchased BPS Bioscience 40488
test_description: ADP-Glo kinase assay, inhibition rates of Yes phosphorylation activity (first and second screening)
Format: biochemical
measurement_conditions: first screening; mean of n = 4 wells; 10 μmol L−1 compound
Method: All inhibitory assays of the phosphorylation activity of Yes were performed in accordance with the Promega Technical Manual for the ADP-Glo™ Kinase Assay (Fitchburg, WI, USA. Catalog number: V9102). The human recombinant Yes [a.a. […] The screening was conducted in three steps consisting of the first screening, the second screening, and the IC50 determination, as can be illustrated in Fig. 1b. First, we determined the inhibition rates of the 1,991 compounds. […]
property_measured: First screening IR (inhibition rate) (%)

Completed entries (count: 2):
>  <compound>
Cc1nn(CC(C)C)c2sc(C(=O)Nc3nc(-c4ccccn4)cs3)cc12 [Compound Z29467100]

>  <property_measured>
First screening IR (inhibition rate)

>  <value>
0

$$$$
>  <compound>
O=C(Oc1cccnc1Br)c1nn(-c2ccccc2)c(=O)c2ccccc12 [Compound Z817738176]

>  <property_measured>
First screening IR (inhibition rate)

>  <value>
23

$$$$

a = CC(Sc1ncc(CO)n1C)c1cn(-c2ccccc2)nn1 (stereo not shown) [Compound Z1419493384]
b = COc1ccc(-c2cc(CSCC(=O)Nc3ccc4c(c3)CCC4)on2)cc1 [Compound Z317186982]
Query block: // which entry reports the smaller First screening IR (inhibition rate), a or b ? Field: selected label. Fill in the label of the entry you choose.
Result block: a
(a: -8%, b: -4%)
